These measurements were taken from patent US9896423B2.

Assay: Pharmacokinetic test in rats, intravenous injection
Assay type: in vivo, SD rats
Conditions: male, Sprague-Dawley, rat, plasma, intravenous, 2 mg/kg, 2 mg/kg iv, 3 h, individual rats; read-out: Concentrations in Plasma of Rats after Intravenous Injection
EXPERIMENTAL_READOUT: concentration at 3 h (ng/mL)

INSERT INTO assay_data (compound, experimental_readout, experimental_value) VALUES
  ('Cc1ccc(Sc2ccccc2N2CCNCC2)c(C)c1 [YY]', 'concentration at 3 h', 49.6),
  ('[2H]C([2H])([2H])c1ccc(Sc2ccccc2N2CCNCC2)c(C([2H])([2H])[2H])c1 [XX]', 'concentration at 3 h', 49.6);
